molecular target: Mitogen-activated protein kinase 6 (Homo sapiens, UniProt Q16659); test: Binding affinity to ERK3 (unknown origin)
Sequence (Q16659 whole entry): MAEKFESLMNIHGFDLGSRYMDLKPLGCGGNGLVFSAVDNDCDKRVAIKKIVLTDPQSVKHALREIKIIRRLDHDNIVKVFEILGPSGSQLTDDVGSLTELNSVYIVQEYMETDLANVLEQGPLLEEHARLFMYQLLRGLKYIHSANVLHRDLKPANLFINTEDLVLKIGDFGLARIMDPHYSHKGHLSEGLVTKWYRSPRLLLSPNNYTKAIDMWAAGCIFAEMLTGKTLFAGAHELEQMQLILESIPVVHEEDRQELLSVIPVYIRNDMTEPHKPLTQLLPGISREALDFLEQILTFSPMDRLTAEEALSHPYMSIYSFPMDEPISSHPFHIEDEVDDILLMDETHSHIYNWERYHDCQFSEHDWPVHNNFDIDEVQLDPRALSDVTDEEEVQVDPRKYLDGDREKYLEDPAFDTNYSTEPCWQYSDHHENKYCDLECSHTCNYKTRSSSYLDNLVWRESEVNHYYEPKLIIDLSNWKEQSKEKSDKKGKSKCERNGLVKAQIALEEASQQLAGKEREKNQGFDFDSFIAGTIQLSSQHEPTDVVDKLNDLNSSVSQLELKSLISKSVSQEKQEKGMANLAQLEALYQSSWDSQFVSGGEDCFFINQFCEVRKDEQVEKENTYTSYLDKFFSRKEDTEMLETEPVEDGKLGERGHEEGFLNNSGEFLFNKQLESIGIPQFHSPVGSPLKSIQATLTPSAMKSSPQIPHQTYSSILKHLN
experimental readout: pKd
Answers are plain numbers, as −log10 of the molar value.

Give reported pKd for CS(=O)(=O)CCCOc1cccc2c1ccn2-c1ccnc(N[C@H]2CC[C@H](C(=O)N3CCC(O)CC3)CC2)n1 (Mitogen-activated protein kinase 6 (Homo sapiens, UniProt Q16659))
6.48

----------
molecular target: c-Jun N-terminal kinase, JNK (Homo sapiens, UniProt P45983+P53779+P45984); test: Inhibition of JNK in human SW1353 cells assessed as inhibition of TNFalpha-induced c-Jun phosphorylation incubated for 30 mins prior to TNFalpha induction measured after 20 mins; assay type: cell-based
experimental readout: IC50

Known IC50 results, listed for orientation:
CS(=O)(=O)N[C@H]1CC[C@H](Nc2nccc(-n3nnc4ccccc43)n2)CC1    1300 nM
O[C@H]1CC[C@H](Nc2nccc(-c3nnc4ccccn34)n2)CC1    12000 nM
CCCOc1cccc2c1cnn2-c1ccnc(N[C@H]2CC[C@H](O)CC2)n1    > 30000 nM
CS(=O)(=O)CCOc1cccc2c1cnn2-c1ccnc(N[C@H]2CC[C@H](O)CC2)n1    980 nM
OCCCOc1cccc2c1cnn2-c1ccnc(N[C@H]2CC[C@H](O)CC2)n1    960 nM
COc1cccc2c1cnn2-c1ccnc(N[C@H]2CC[C@H](O)CC2)n1    3100 nM

# batch: return IC50 for each of the 4 molecules below
1. CS(=O)(=O)CCCOc1cccc2c1ccn2-c1ccnc(N[C@H]2CC[C@H](C(=O)N3CCC(F)(F)CC3)CC2)n1
2. CS(=O)(=O)CCCOc1cccc2c1ccn2-c1ccnc(N[C@H]2CC[C@H](C(=O)N3CCC(O)CC3)CC2)n1
3. CCN(CC)C(=O)[C@H]1CC[C@H](Nc2nccc(-n3ccc4c(OCCCS(C)(=O)=O)cccc43)n2)CC1
4. CC(C)(O)[C@H]1CC[C@H](Nc2nccc(-n3ccc4c(OCCCS(C)(=O)=O)cccc43)n2)CC1

["1400 nM", "1100 nM", "580 nM", "350 nM"]

Go through the items and report each one's IC50.
1. COC1CCN(C(=O)[C@H]2CC[C@H](Nc3nccc(-n4ccc5c(OCCCS(C)(=O)=O)cccc54)n3)CC2)CC1
2. CN(C)S(=O)(=O)N[C@H]1CC[C@H](Nc2nccc(-n3nnc4ccccc43)n2)CC1
3. O[C@H]1CC[C@H](Nc2nccc(-c3n[nH]c4ccccc34)n2)CC1
4. CS(=O)(=O)NCCCOc1cccc2c1cnn2-c1ccnc(N[C@H]2CC[C@H](O)CC2)n1

1: 1400 nM; 2: 4900 nM; 3: 2300 nM; 4: 1100 nM

For each listed entry, give its IC50.
1. O[C@H]1CC[C@H](Nc2nccc(-c3c[nH]c4ccccc34)n2)CC1
2. CC(C)(O)[C@H]1CC[C@H](Nc2nccc(-n3ncc4c(OCCCS(C)(=O)=O)cccc43)n2)CC1
3. O[C@H]1CC[C@H](Nc2nccc(-n3ccc4ccccc43)n2)CC1
4. O=C([C@H]1CC[C@H](Nc2nccc(-n3nnc4ccccc43)n2)CC1)N1CCCC1
5. CS(=O)(=O)CCCOc1cccc2c1ccn2-c1ccnc(N[C@H]2CC[C@H](C(=O)N3CC[C@@H](O)C3)CC2)n1

["8200 nM", "240 nM", "2000 nM", "3300 nM", "1100 nM"]

Give IC50 for each of the items listed below.
1. CS(=O)(=O)CCCOc1cccc2c1ccn2-c1ccnc(N[C@H]2CC[C@H](C(=O)N3CC[C@@H](F)C3)CC2)n1
2. CC(=O)N[C@H]1CC[C@H](Nc2nccc(-n3nnc4ccccc43)n2)CC1
3. OCC(O)COc1cccc2c1cnn2-c1ccnc(N[C@H]2CC[C@H](O)CC2)n1 (stereo partly specified)
4. O[C@H]1CC[C@H](Nc2nccc(-n3ncc4ccccc43)n2)CC1

["590 nM", "1500 nM", "2000 nM", "2700 nM"]
